Test: in vitro
Conditions: rat, plasma
measurement type: fraction unbound

[[record]]
input_smiles = "O=C(Nc1ccnc(NC(=O)C2CC2)c1)c1c(Cl)cccc1Cl"
value_reported = 0.04


* * *

Test: in vivo
Settings: Sprague-Dawley, rat, po, 5 mg/kg
measurement type: bioavailability

[[record]]
input_smiles = "O=C(Nc1ccnc(NC(=O)C2CC2)c1)c1c(Cl)cccc1Cl"
value_reported = "105%"


* * *

Assay: in vivo
Details: Sprague-Dawley, rat, po, 5 mg/kg
measurement type: Cmax

[[record]]
input_smiles = "O=C(Nc1ccnc(NC(=O)C2CC2)c1)c1c(Cl)cccc1Cl"
measurement_type = "Cmax"
value_reported = "2500 nM"

